B1: PPP2R2C (parent)
chain: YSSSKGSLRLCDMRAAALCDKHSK

# Variants of: B1
# ASSAY_PROTOCOL: protein stability index of a GFP-peptide fusion (GPS, HEK-293T) (PSI 1-6); higher = more stable;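 also: lentivirally expressed fusions sorted by FACS into six bins by GFP to DsRed ratio, PSI derived from sequencing read proportions per bin multiplied by bin number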
# CONDITION_SUMMARY: c terminus: a fixed tail appended
OUTCOME_MEASURE: protein stability index

>>> readout_value("S2P")
2.5
>>> readout_value("L18S")
1.79
>>> readout_value("K24Q")
1.64
>>> readout_value("S3C")
3.48
>>> readout_value("S7W")
3.69
>>> readout_value("L8P")
2.27
>>> readout_value("K21V")
2.63
>>> readout_value("S2K")
3.58
>>> readout_value("A15G")
2.24
>>> readout_value("D20G")
2.62
>>> readout_value("S4P")
2.57
>>> readout_value("S23V")
2.4
>>> readout_value("M13T")
2.21
>>> readout_value("R14Y")
2.45
>>> readout_value("C19V")
1.4
>>> readout_value("C11P")
4.05
>>> readout_value("S2M")
1.72
>>> readout_value("L18F")
1.69
>>> readout_value("L8D")
2.76
>>> readout_value("S23L")
1.93
>>> readout_value("S4L")
2.62
>>> readout_value("C11V")
1.8
>>> readout_value("L18M")
1.13
>>> readout_value("K24T")
2.39
>>> readout_value("K21P")
2.79
>>> readout_value("K24M")
2.11
>>> readout_value("D12Q")
2.76
>>> readout_value("S3T")
2.11
>>> readout_value("D12Y")
2.1
>>> readout_value("D20M")
1.98
>>> readout_value("C11M")
2.29
>>> readout_value("L18C")
1.55
>>> readout_value("D20A")
1.64
>>> readout_value("L18I")
1.96
>>> readout_value("R9A")
2.63
>>> readout_value("L8T")
1.97
>>> readout_value("S2G")
2.46
>>> readout_value("K21S")
2.21
>>> readout_value("R9Y")
1.76
>>> readout_value("D12I")
1.6
>>> readout_value("L8W")
2.39
>>> readout_value("A17N")
3.18
>>> readout_value("K21I")
1.48
>>> readout_value("A16Q")
2.18
>>> readout_value("G6K")
2.2
>>> readout_value("K24P")
1.9
